For each of the compounds below, state its IC50.
- Experimental System: human serotonin transporters (Homo sapiens, UniProt P31645)
- Construct: expressed in transfected cells
- Sequence (P31645 whole entry): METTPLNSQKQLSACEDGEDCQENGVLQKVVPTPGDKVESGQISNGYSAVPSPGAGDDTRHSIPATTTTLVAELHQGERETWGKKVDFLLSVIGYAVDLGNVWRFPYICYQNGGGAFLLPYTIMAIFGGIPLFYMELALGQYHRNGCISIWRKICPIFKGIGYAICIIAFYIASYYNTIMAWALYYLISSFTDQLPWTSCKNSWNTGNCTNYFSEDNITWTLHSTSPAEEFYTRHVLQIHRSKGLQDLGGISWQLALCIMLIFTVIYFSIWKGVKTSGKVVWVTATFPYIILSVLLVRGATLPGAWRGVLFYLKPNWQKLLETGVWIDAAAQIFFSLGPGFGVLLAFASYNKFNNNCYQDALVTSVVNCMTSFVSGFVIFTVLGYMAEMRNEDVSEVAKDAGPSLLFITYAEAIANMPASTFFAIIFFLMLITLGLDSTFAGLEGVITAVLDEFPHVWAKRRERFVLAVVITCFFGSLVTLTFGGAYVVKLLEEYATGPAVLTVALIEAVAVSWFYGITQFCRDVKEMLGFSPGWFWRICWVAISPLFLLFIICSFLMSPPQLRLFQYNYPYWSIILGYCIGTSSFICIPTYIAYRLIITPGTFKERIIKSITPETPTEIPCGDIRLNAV
- Test: Serotonin transporter binding assay ([3H]-citalopram competition, HEK-hSERT cell membranes)
- Test Settings: Table 2; HEK-hSERT membranes, [3H]-citalopram displacement; read-out: SERT IC50

Form field - read-out: IC50; system: human serotonin transporters (Homo sapiens, UniProt P31645); submitted item: Cc1cc(-c2cc(COCC3(c4ccccc4)CCNCC3)cc(C(F)(F)F)c2)cc(C)c1O
0.01 to 100 nM

Try this compound too: Cc1ccc(-c2cc(COCC3(c4ccccc4)CCNCC3)cc(C(F)(F)F)c2)c2ccccc12
100 to 300 nM

Try this compound too: CC(C)N1CCC(COCc2cc(-c3ccc(C#N)cc3)cc(C(F)(F)F)c2)(c2ccccc2)CC1
> 300 nM

Try this compound too: N#Cc1ccc(-c2cc(COCC3(c4ccc(F)cc4-c4ccccc4)CCNCC3)cc(C(F)(F)F)c2)cc1
100 to 300 nM

Try this compound too: CN(C)C(=O)c1cc(COCC2(c3ccccc3)CCNCC2)cc(-c2ccc(C#N)cc2)c1
0.01 to 100 nM

---

For each of the molecules below, state its pIC50.
- Experimental System: human serotonin transporters (Homo sapiens, UniProt P31645)
- Construct: expressed in transfected cells
- Test: Serotonin transporter binding assay ([3H]-citalopram competition, HEK-hSERT cell membranes)
- Test Settings: Table 1; HEK-hSERT membranes, [3H]-citalopram displacement; read-out: SERT IC50
pIC50: −log10 of the molar value.

What does the data say about its pIC50? Entry: OCc1ccccc1-c1cc(COCC2(c3ccccc3)CCNCC2)cc(C(F)(F)F)c1
7.00 to 11.00

Try this molecule too: FC(F)(F)c1cc(COCC2(c3ccccc3)CCNCC2)cc(-c2cccc(-c3ccccc3)c2)c1
6.52 to 7.00

Try this molecule too: Fc1ccccc1-c1cc(COCC2(c3ccccc3)CCNCC2)cc(C(F)(F)F)c1
7.00 to 11.00

Try this molecule too: FC(F)(F)c1cc(COCC2(c3ccccc3)CCNCC2)cc(-c2ccncc2)c1
7.00 to 11.00

Try this molecule too: Cc1cccc(C)c1-c1cc(COCC2(c3ccccc3)CCNCC2)cc(C(F)(F)F)c1
6.52 to 7.00

Try this molecule too: CC(C)(C)c1ccc(-c2cc(COCC3(c4ccccc4)CCNCC3)cc(C(F)(F)F)c2)cc1
< 6.52

Try this molecule too: FC(F)(F)c1cc(COCC2(c3ccccc3)CCNCC2)cc(-c2ccccc2C(F)(F)F)c1
6.52 to 7.00

Try this molecule too: COc1cccc(OC)c1-c1cc(COCC2(c3ccccc3)CCNCC2)cc(C(F)(F)F)c1
7.00 to 11.00

Try this molecule too: CSc1ccc(-c2cc(COCC3(c4ccccc4)CCNCC3)cc(C(F)(F)F)c2)cc1
7.00 to 11.00

Try this molecule too: CCCCCc1ccc(-c2cc(COCC3(c4ccccc4)CCNCC3)cc(C(F)(F)F)c2)cc1
6.52 to 7.00

Try this molecule too: Fc1cc(F)cc(-c2cc(COCC3(c4ccccc4)CCNCC3)cc(C(F)(F)F)c2)c1
7.00 to 11.00

Try this molecule too: FC(F)(F)c1cccc(-c2cc(COCC3(c4ccccc4)CCNCC3)cc(C(F)(F)F)c2)c1
7.00 to 11.00

Try this molecule too: Fc1cccc(-c2cc(COCC3(c4ccccc4)CCNCC3)cc(C(F)(F)F)c2)c1
7.00 to 11.00

Try this molecule too: CCOc1cccc(-c2cc(COCC3(c4ccccc4)CCNCC3)cc(C(F)(F)F)c2)c1
7.00 to 11.00

Try this molecule too: CSc1ccccc1-c1cc(COCC2(c3ccccc3)CCNCC2)cc(C(F)(F)F)c1
7.00 to 11.00

Try this molecule too: COc1ccc(Cl)cc1-c1cc(COCC2(c3ccccc3)CCNCC2)cc(C(F)(F)F)c1
7.00 to 11.00

Try this molecule too: C[C@@H](OCC1(c2ccccc2)CCNCC1)c1cc(-c2ccc(C#N)cc2)cc(C(F)(F)F)c1
7.00 to 11.00

Try this molecule too: COc1ccc(-c2cc(COCC3(c4ccccc4)CCNCC3)cc(C(F)(F)F)c2)cc1F
7.00 to 11.00

Try this molecule too: COc1ccc(-n2nnnc2C)cc1COCC1(c2ccccc2)CCNCC1
7.00 to 11.00

---

For each of the molecules below, state its IC50.
- Experimental System: neurokinin-1 (NK-1) receptor (Homo sapiens)
- Construct: a human glioblastoma-astrocytoma cell line that endogenously expresses the neurokinin-1 (NK-1) receptor; endogenous in cells; host or cells: U373 human glioblastoma-astrocytoma cells (membranes)
- Test: NK-1 Binding assay ([125I] Substance P competition, U373 cell membranes)
- Test Settings: Table 1; U373 membranes, [125I] Substance P displacement; read-out: NK-1 IC50

What does the data say about its IC50? Entry: COc1cc(-c2cc(COCC3(c4ccccc4)CCNCC3)cc(C(F)(F)F)c2)c(F)cn1
100 to 300 nM

Try this molecule too: OCc1ccccc1-c1cc(COCC2(c3ccccc3)CCNCC2)cc(C(F)(F)F)c1
100 to 300 nM

Try this molecule too: COc1ccc(-c2cc(COCC3(c4ccccc4)CCNCC3)cc(C(F)(F)F)c2)c(OC)c1
0.01 to 100 nM

Try this molecule too: FC(F)(F)c1cc(COCC2(c3ccccc3)CCNCC2)cc(-c2ccc(N3CCOCC3)nc2)c1
> 300 nM

Try this molecule too: COc1ccc(-c2ccc(C#N)cc2)cc1COCC1(c2ccccc2)CCNCC1
0.01 to 100 nM

Try this molecule too: COc1ccc(Cl)cc1-c1cc(COCC2(c3ccccc3)CCNCC2)cc(C(F)(F)F)c1
> 300 nM

Try this molecule too: FC(F)(F)c1cc(COCC2(c3ccccc3)CCNCC2)cc(-c2ccc3ccccc3c2)c1
100 to 300 nM

Try this molecule too: Cn1nnnc1-c1cc(COCC2(c3ccccc3)CCNCC2)cc(C(F)(F)F)c1
0.01 to 100 nM

Try this molecule too: N#Cc1ccc(-c2cc(COCC3(c4ccccc4)CCNCC3)cc(C(F)(F)F)c2)cn1
0.01 to 100 nM

---

- Experimental System: neurokinin-1 (NK-1) receptor (Homo sapiens, UniProt P25103)
- Construct: a human glioblastoma-astrocytoma cell line that endogenously expresses the neurokinin-1 (NK-1) receptor; endogenous in cells; host or cells: U373 human glioblastoma-astrocytoma cells (membranes)
- Sequence (P25103 whole entry): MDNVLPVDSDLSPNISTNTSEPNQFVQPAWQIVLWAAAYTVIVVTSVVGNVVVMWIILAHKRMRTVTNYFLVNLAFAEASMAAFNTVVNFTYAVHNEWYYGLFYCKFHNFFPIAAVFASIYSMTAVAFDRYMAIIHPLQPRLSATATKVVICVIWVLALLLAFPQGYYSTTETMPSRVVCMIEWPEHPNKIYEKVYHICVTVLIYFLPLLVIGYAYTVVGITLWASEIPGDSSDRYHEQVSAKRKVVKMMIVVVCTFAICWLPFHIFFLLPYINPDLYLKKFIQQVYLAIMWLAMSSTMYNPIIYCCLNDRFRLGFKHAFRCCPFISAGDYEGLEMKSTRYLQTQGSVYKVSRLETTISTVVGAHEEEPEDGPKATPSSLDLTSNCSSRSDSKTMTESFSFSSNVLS
- Test: NK-1 Binding assay ([125I] Substance P competition, U373 cell membranes)
- Test Settings: Table 2; U373 membranes, [125I] Substance P displacement; read-out: NK-1 IC50
For each of the molecules below, state its IC50.

What does the data say about its IC50? Entry: CN1CCC(COCc2cc(-c3ccc(C#N)cc3)cc(C(F)(F)F)c2)(c2ccc(-c3ccco3)cc2)CC1
0.01 to 100 nM

Try this molecule too: CC(=O)c1ccccc1-c1cc(COCC2(c3ccccc3)CCNCC2)cc(C(F)(F)F)c1
> 300 nM

Try this molecule too: CN1CCC(COCc2cc(-c3c(F)c(F)c(C#N)c(F)c3F)cc(C(F)(F)F)c2)(c2ccccc2)CC1
0.01 to 100 nM

Try this molecule too: CN1CCC(COCc2cc(F)cc(-c3ccc(C#N)cc3)c2)(c2ccccc2)CC1
0.01 to 100 nM

Try this molecule too: COc1cc(-c2cc(COCC3(c4ccccc4)CCNCC3)cc(C(F)(F)F)c2)ccc1C#N
0.01 to 100 nM

Try this molecule too: COc1c(F)cc(-c2cc(COCC3(c4ccccc4)CCN(C)CC3)cc(C(F)(F)F)c2)cc1F
0.01 to 100 nM

Try this molecule too: C[C@H](OCC1(c2ccccc2)CCNCC1)c1cc(-c2ccc(C#N)cc2)cc(C(F)(F)F)c1
0.01 to 100 nM

Try this molecule too: Fc1cnc(Cl)c(-c2cc(COCC3(c4ccccc4)CCNCC3)cc(C(F)(F)F)c2)c1
100 to 300 nM

Try this molecule too: CN1CCC(COCc2cc(-c3ccc(F)c(Cl)c3)cc(C(F)(F)F)c2)(c2ccccc2)CC1
0.01 to 100 nM

Try this molecule too: O=C(OCc1ccccc1)c1ccc(-c2cc(COCC3(c4ccccc4)CCNCC3)cc(C(F)(F)F)c2)cc1
0.01 to 100 nM

Try this molecule too: COc1ccc(F)cc1-c1cc(COCC2(c3ccccc3)CCNCC2)cc(C(F)(F)F)c1
100 to 300 nM

Try this molecule too: CN1CCC(COCc2cc(-c3ccc(C#N)cc3)cc(C(F)(F)F)c2)(c2ccc(F)c(F)c2)CC1
0.01 to 100 nM

Try this molecule too: COc1ccc(-c2cc(COCC3(c4ccccc4)CCNCC3)cc(C(F)(F)F)c2)c(F)c1F
0.01 to 100 nM

Try this molecule too: FC(F)(F)c1cc(COCC2(c3ccccc3)CCNCC2)cc(-c2ccc(C3CCCCC3)cc2)c1
> 300 nM

Try this molecule too: COc1cc(-c2cc(COCC3(c4ccccc4)CCNCC3)cc(C(F)(F)F)c2)ccc1O
0.01 to 100 nM

Try this molecule too: COc1ccc(-c2cc(COCC3(c4ccccc4)CCN(C)CC3)cc(C(F)(F)F)c2)cc1
0.01 to 100 nM

Try this molecule too: COc1ccc2cc(-c3cc(COCC4(c5ccccc5)CCNCC4)cc(C(F)(F)F)c3)ccc2c1
> 300 nM

Try this molecule too: N#Cc1ccc(-c2cc(COCC3(c4ccc(F)cc4-c4ccccc4)CCNCC3)cc(C(F)(F)F)c2)cc1
0.01 to 100 nM
